Where do the numbers come from? From ChEMBL document CHEMBL1146815.

target: Calpain-1 catalytic subunit (Homo sapiens, UniProt P07384); experiment: Inhibitory activity against on human calpain 1
Sequence (P07384 whole entry): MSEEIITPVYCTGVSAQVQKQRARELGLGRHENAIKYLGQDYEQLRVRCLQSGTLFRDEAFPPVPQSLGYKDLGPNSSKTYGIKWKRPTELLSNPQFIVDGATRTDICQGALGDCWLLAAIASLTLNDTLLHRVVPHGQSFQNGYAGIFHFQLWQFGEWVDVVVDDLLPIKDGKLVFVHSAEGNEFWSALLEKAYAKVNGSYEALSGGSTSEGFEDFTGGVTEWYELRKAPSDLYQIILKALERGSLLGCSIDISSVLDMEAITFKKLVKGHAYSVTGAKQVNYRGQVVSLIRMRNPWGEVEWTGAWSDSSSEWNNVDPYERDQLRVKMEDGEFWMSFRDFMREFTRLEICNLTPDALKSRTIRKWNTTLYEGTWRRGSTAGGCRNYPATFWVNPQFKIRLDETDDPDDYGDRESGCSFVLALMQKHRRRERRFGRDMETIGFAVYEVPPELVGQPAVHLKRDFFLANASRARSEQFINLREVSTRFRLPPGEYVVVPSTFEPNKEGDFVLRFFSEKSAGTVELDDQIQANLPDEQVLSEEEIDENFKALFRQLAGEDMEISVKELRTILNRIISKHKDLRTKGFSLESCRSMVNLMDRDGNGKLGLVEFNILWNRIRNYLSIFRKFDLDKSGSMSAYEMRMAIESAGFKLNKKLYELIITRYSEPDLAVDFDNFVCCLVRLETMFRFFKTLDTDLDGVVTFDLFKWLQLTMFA
# IC50 annotations
Experimental readout: IC50 (nM)

>>> quantitative_readout("CC(C)C[C@H](NC(=O)c1cccc2c1Nc1ccccc1S2)C(=O)N[C@H]1CCOC1O (stereo partly drawn)")
82
>>> quantitative_readout("Cc1c(C)c2c(c(C)c1O)CCC(C)(C(=O)N[C@@H](CC(C)C)C(=O)N[C@H]1CCOC1O)O2 (stereo partly drawn)")
147
>>> quantitative_readout("CC(C)C[C@H](NC(=O)c1ccc2c(c1)Nc1ccccc1S2)C(=O)N[C@H]1CCOC1O (stereo partly drawn)")
22.5
